Test system: hepatocellular HEP G2 cancer cells
test.summary: In vitro cytotoxicity MTS assay, hepatocellular HEP G2
Type: cell-based, human
cond: 72 hours
measurement.label: IC50 (µM)
Report as a plain number; the unit µM is understood.

Solved entries:
molecule	u	IC50
COc1ccc(NC(=O)C(=O)c2cn(Cc3ccccc3C#N)c3ccccc23)cc1 [Compound 32]	µM	4.77
N#Cc1ccc(Cn2cc(C(=O)C(=O)Nc3ccc(I)cc3)c3ccccc32)cc1 [Compound 13]	µM	6.31
Cc1cc(NC(=O)C(=O)c2cn(Cc3ccc(C#N)cc3)c3ccccc23)sn1 [Compound 25]	µM	1.79

Now turn to the next molecule.
Task: If you can, please state the reported IC50 value of Cc1cc(NC(=O)C(=O)c2cn(Cc3ccsc3)c3ccccc23)sn1 [Compound 45] .
Output: 1.69

---

Test system: prostate PC3 cancer cells
test.summary: In vitro cytotoxicity MTS assay, prostate PC3
Format: cell-based, human
cond: 72 hours
# if measured IC50 < 0.7 µM: Criterion met  # else: Criterion not met

The examples below pair each entry with its known result.
molecular.string	answer.label
Cc1cc(NC(=O)C(=O)c2cn(Cc3ccno3)c3ccccc23)sn1	Criterion not met
CCc1cc(Cn2cc(C(=O)C(=O)Nc3cc(C)ns3)c3ccccc32)on1	Criterion met
Cc1cc(NC(=O)C(=O)c2cn(Cc3ccsc3)c3ccccc23)sn1	Criterion not met

Task: Please let me know if Cc1cc(Cn2cc(C(=O)C(=O)Nc3cc(C)ns3)c3ccccc32)on1 shows IC50 below 0.7 µM.
Output: Criterion met

Task: Hi there! Is IC50 for N#Cc1ccc(Cn2cc(C(=O)C(=O)Nc3ccc4ncccc4c3)c3ccccc32)cc1 below 0.7 µM, do you know?
Output: Criterion not met

Task: In plain terms, does Cc1cc(NC(=O)C(=O)c2cn(Cc3ccco3)c3ccccc23)sn1 come in under 0.7 µM for IC50?
Output: Criterion met

---

System: hepatocellular HA-22T cancer cells
test.summary: In vitro cytotoxicity MTS assay, hepatocellular HA-22T
Format: cell-based, human
cond: 72 hours
measurement.label: pIC50
# pIC50 = -log10(concentration in molar units)

Below, each entry is followed by its recorded pIC50 result.
molecular.string	value
Cc1cc(Cn2cc(C(=O)C(=O)Nc3ccc(Br)cc3)c3ccccc32)on1	6.83
O=C(Nc1cc(-c2ccc(Cl)cc2)no1)C(=O)c1cn(Cc2ccc(Cl)cc2)c2ccccc12	5.65
O=C(Nc1ccc2ncccc2c1)C(=O)c1cn(Cc2cscn2)c2ccccc12	6.33
N#Cc1ccc(Cn2cc(C(=O)C(=O)Nc3ccc4ncccc4c3)c3ccccc32)cc1	6.29
Cc1cc(NC(=O)C(=O)c2cn(Cc3ccco3)c3ccccc23)sn1	5.90

Task: Return reported pIC50; argument: O=C(Nc1ccc2ncccc2c1)C(=O)c1cn(Cc2ccco2)c2ccccc12
Output: 6.46

Task: Name the reported pIC50 value associated with the compound N#Cc1ccc(Cn2cc(C(=O)C(=O)Nc3cc(-c4ccc(Cl)cc4)no3)c3ccccc32)cc1
Output: 6.25

Task: Bench note: what pIC50 did N#Cc1ccc(Cn2cc(C(=O)C(=O)Nc3ccc(I)cc3)c3ccccc32)cc1 show?
Output: 6.45

---

Tested on: hepatocellular HA-22T cancer cells
test.summary: In vitro cytotoxicity MTS assay, hepatocellular HA-22T
Format: cell-based, human
cond: 72 hours
Form field: pIC50 (one value per entry).
Value format note: pIC50 is -log10 of concentration (mol/L); just state the number.

Worked examples follow.
molecular.string	assayed.system	pIC50
Cc1cc(Cn2cc(C(=O)C(=O)Nc3ccc4ncccc4c3)c3ccccc32)on1	hepatocellular HA-22T cancer cells	6.94
O=C(Nc1ccc2ncccc2c1)C(=O)c1cn(Cc2ccsc2)c2ccccc12	hepatocellular HA-22T cancer cells	6.52
COc1ccc(NC(=O)C(=O)c2cn(Cc3ccccc3C#N)c3ccccc23)cc1	hepatocellular HA-22T cancer cells	5.72
COc1ccc(NC(=O)C(=O)c2cn(Cc3ccsc3)c3ccccc23)cc1	hepatocellular HA-22T cancer cells	7.34
Cc1cc(NC(=O)C(=O)c2cn(Cc3cc(C(C)C)no3)c3ccccc23)sn1	hepatocellular HA-22T cancer cells	6.52

Task: Please look up its pIC50: Cc1cc(Cn2cc(C(=O)C(=O)Nc3cc(C)ns3)c3ccccc32)on1
Output: 6.91

Task: Item under review: N#Cc1ccc(Cn2cc(C(=O)C(=O)NCCCCCCOc3ccc(Cl)cc3)c3ccccc32)cc1 . Reported pIC50?
Output: 6.70

Task: Quick one: pIC50 for Cc1cc(NC(=O)C(=O)c2cn(Cc3ccsc3)c3ccccc23)sn1 ?
Output: 5.62
